experiment: Solubility of crystal form A in different solvents; format: physicochemical; settings: organic solvent or mixture, thermodynamic from solid; Acetone, room temperature
reported.endpoint: solubility

For the compound Cn1c(=O)n(C[C@H]2CC[C@@](C)(O)CC2)c(=O)c2c1ncn2CC1CC1 [Crystal Form A] , what solubility is on record?
~17.2 mg/mL

---

Experiment: Solubility of crystal form A in different solvents
Assay type: physicochemical
Conditions: organic solvent or mixture, thermodynamic from solid; Cyclohexane, room temperature
Method: About 2 mg of crystal form A was weighed put in a 1.5 mL liquid phase vial, to which the following solvents were respectively added by pipettes by stages to dissolve the crystal form A while manually vibrating.
reported.endpoint: solubility

Record request: solubility value, item Cn1c(=O)n(C[C@H]2CC[C@@](C)(O)CC2)c(=O)c2c1ncn2CC1CC1 [Crystal Form A]
< 1000 µg/mL
